pIC50 listing for selected binders.
- Tested System: T1, Human PD-L1 His (human PD-L1 ECD with C-terminal His tag) (human, UniProt Q9NZQ7 19-238)
- T1 construct: Biotinylated in ELISA and AlphaScreen assays; also called hPD-L1-his; biotinylated PD-L1 his
- T1 sequence (Q9NZQ7 19-238 limits assumed): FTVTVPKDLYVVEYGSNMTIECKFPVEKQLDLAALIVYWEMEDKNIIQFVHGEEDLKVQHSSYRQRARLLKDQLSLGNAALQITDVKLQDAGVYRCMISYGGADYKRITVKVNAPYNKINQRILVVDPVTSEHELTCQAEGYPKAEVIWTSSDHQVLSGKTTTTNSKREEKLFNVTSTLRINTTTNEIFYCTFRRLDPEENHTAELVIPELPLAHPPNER
- Test Name: ELISA, biotin-PD-L1 to plate-bound CD80, antibody titrated
Expect pIC50 as a plain number equal to -log10 of the molar concentration.

[[record]]
binder = "411C04 (antibody, human IgG1, kappa, V domains shown) VH: EVQLVDSGGGLVQPGGSLRLSCAASGFTFSSYWMSWVRQAPGKGLEWVANIKEDGSEKYYVDSLKGRFTISRDNAKNSLYLQMNSLRAEDTSVYYCARVRLYSDFLDYWGQGTLVTVSS VL: DIQMTQSPSSVSASVGDRVTITCRASQGVSSWLAWYQQKSGKAPKLLIYGASSLQSGVPSRFSGSGSGTEFILSISSLQPEDFATYYCQQANSIPFTFGPGTKVDIKR"
observation_type = "pIC50"
measured_value = 8.71

[[record]]
binder = "413D08 (antibody, human IgG1, kappa, V domains shown) VH: QVQLVESGGGVVQPGRSLRLSCAASGFTFRIYGMHWVRQAPGKGLEWVAVIWYDGSNKYYADSVKGRFTISRDNSDNTLYLQMNSLRAEDTAVYYCARDMDYFGMDVWGQGTTVTVSS VL: DLQMTQSPSSLSASVGDRVTITCRASQGIRNDLGWYQQKPGKAPKRLIYAASSLQSGVPSRFSGSGSGTEFTLTISSLQPEDFATYYCLQHNSYPRTFGQGTKVEIKR"
observation_type = "pIC50"
measured_value = 9.17


Next binder, pIC50 to be filled in.
# query: pIC50 of entry 411B08 (antibody, human IgG1, kappa, V domains shown) VH: EVQLVESGGGLVQPGGSLRLSCAASGFTFSSYWMSWVRQAPGKGLEWVANIKEDGSEKYYVDSVKGRFTISRDNAKNSLYLQMNSLRAEDTSVYYCARNRLYSDFLDNWGQGTLVTVSS VL: DIQMTQSPSSVSASVGDRVTITCRASQGVSSWLAWYQQKSGKAPKLLIYGASSLQSGVPSRFSGSGSGTEFILTISSLQPEDFATYYCQQANSIPFTFGPGTKVDIKR
8.80
